# assayRemarks: qHTS of pediatric cancer cell lines to identify multiple opportunities for drug repurposing: Primary screen for TC32 cells (AID 1347089); also: nearly all actives have a fitted effect of over 60% in size
# measurementParameters: TC32 Ewing sarcoma viability, CellTiter-Glo luminescence, 48 h; series mostly up to 45.8 µM
Results filed as inconclusive are left out. Calls of active or inactive are those of the source. Calls follow the shape of the dose curve; as a rule, active = well fitted cell-killing curve with a large enough effect; inconclusive = small, poorly fitted or top-dose-only effect; inactive = flat fitted curve, though single readings scatter.
Please state which outcome applies, choosing from active, inactive

Solved entries:
compound	categoryLabel
O=C(O)CCCc1c[nH]c2ccccc12	inactive
CCc1c2c(nc3ccc(O)cc13)-c1cc3c(c(=O)n1C2)COC(=O)[C@]3(O)CC	active
O=c1c2ccccc2nc2n1CCc1c-2[nH]c2ccccc12	inactive
c1nc2nc(Nc3ccc(N4CCOCC4)cc3)nc(NC3CCCCC3)c2[nH]1	active
Cc1ccc2nc(NC(=O)CSc3nc4c(c(=O)n3-c3ccccc3)SCC4)sc2c1	inactive

Input: Please state the recorded outcome for this compound: "Cc1cn(-c2cc(NC(=O)c3ccc(C)c(Nc4nccc(-c5cccnc5)n4)c3)cc(C(F)(F)F)c2)cn1"
Output: inactive

Input: Please state the recorded outcome for this compound: "O=C(C=Cc1c(C(=O)O)[nH]c2cc(Cl)cc(Cl)c12)Nc1ccccc1"
Output: inactive

Input: Please state the recorded outcome for this compound: "CN(c1ncccc1CNc1nc(Nc2ccc3c(c2)CC(=O)N3)ncc1C(F)(F)F)S(C)(=O)=O"
Output: active

Input: Please state the recorded outcome for this compound: "CC=C1NC(=O)[C@H]2CSSCCC=C[C@H](CC(=O)N[C@H](C(C)C)C(=O)N2)OC(=O)[C@H](C(C)C)NC1=O"
Output: active

Input: Please state the recorded outcome for this compound: "CCCCc1nc2cc(C=CC(=O)NO)ccc2n1CCN(CC)CC"
Output: active

Input: Please state the recorded outcome for this compound: "Nc1ccc(C(=O)c2cc3c(ccc4ccccc43)[nH]2)cc1"
Output: active

Input: Please state the recorded outcome for this compound: "Nc1ccn([C@@H]2CS[C@H](CO)O2)c(=O)n1"
Output: inactive

Input: Please state the recorded outcome for this compound: "C[C@@]12O[C@@H](C[C@]1(O)CO)n1c3ccccc3c3c4c(c5c6ccccc6n2c5c31)CNC4=O"
Output: active

Input: Please state the recorded outcome for this compound: "CCCCOc1c(C(=O)c2c(F)cc(C)cc2F)cnc2n[nH]cc12"
Output: inactive

Input: Please state the recorded outcome for this compound: "O=C(CCCCCCNC(=O)c1cnc(N(c2ccccc2)c2ccccc2)nc1)NO"
Output: active

Input: Please state the recorded outcome for this compound: CCOC(=O)C1=C(C)NC2=C(C(=O)CC(C)(C)C2)C1c1ccc(-c2ccccc2)cc1 (configuration not stated)
Output: inactive

Input: Please state the recorded outcome for this compound: "CC(C)c1nn(-c2c(Cl)cccc2Cl)c2nc(Cc3ccc(OCCO)cc3)[nH]c(=O)c12"
Output: active

Input: Please state the recorded outcome for this compound: "CC(C)(C)c1cc(C(C)(C)C)c(NC(=O)c2c[nH]c3ccccc3c2=O)cc1O"
Output: inactive

Input: Please state the recorded outcome for this compound: "CC1(C)O[C@@H]2C[C@@H]3[C@H]4C[C@@H](F)C5=CC(=O)C=C[C@]5(C)[C@@]4(F)[C@@H](O)C[C@]3(C)[C@]2(C(=O)CO)O1"
Output: inactive

Input: Please state the recorded outcome for this compound: "CC(C)[C@H](C(=O)Nc1ccc(C(=O)NO)cc1)c1ccccc1"
Output: active

Input: Please state the recorded outcome for this compound: "COCCn1c2c([n+](Cc3cnccn3)c1C)C(=O)c1ccccc1C2=O"
Output: active

###

# assayRemarks: qHTS to identify inhibitors of the type 1 interferon - major histocompatibility complex class I in skeletal muscle: primary screen against the NCATS Mechanism Interrogation Plate v5.0 (MIPE) Libary (AID 1347411); also: nearly all actives have a fitted effect of over 65% in size
# measurementParameters: iHSKM cells + IFN-b, HiBiT-tagged MHC-I luminescence, 24 h; series mostly up to 45.8 µM
Inconclusive results are not listed. Active and inactive are the calls of the source. Calls follow the shape of the dose curve; as a rule, active = well fitted inhibition curve with a large enough effect; inconclusive = small, poorly fitted or top-dose-only effect; inactive = no such curve, though single readings can be large or run the other way.
Please state which outcome applies, choosing from 1 (yes) for active, 0 (no) for inactive

entrySmiles	categoryLabel
COc1ccc2c(c1)CC[C@@H](CN(C)CC(=O)O)[C@H]2c1ccccc1	0 (no)

Input: Please state the recorded outcome for this compound: "CN1CC[C@@H](c2c(O)cc(O)c3c(=O)cc(-c4ccccc4Cl)oc23)[C@@H](O)C1"
Output: 1 (yes)

Input: Please state the recorded outcome for this compound: "CC(C)CC(=O)Nc1n[nH]c2c1CN(C(=O)C1CCN(C)CC1)C2(C)C"
Output: 1 (yes)

Input: Please state the recorded outcome for this compound: "CNC(=O)c1cc(Oc2ccc(NC(=O)Nc3cc(C(C)(C)C)nn3-c3ccc4ncccc4c3)c(F)c2)ccn1"
Output: 1 (yes)

Input: Please state the recorded outcome for this compound: "COc1cc2c(Oc3ccc4[nH]c(C)cc4c3F)ncnc2cc1OCCCN1CCCC1"
Output: 1 (yes)

Input: Please state the recorded outcome for this compound: "C=CCn1c(=O)c2cnc(Nc3ccc(N4CCN(C)CC4)cc3)nc2n1-c1cccc(C(C)(C)O)n1"
Output: 0 (no)

Input: Please state the recorded outcome for this compound: "CNc1nccc(-c2cccnc2Oc2cc(C(=O)Nc3cccc(C(F)(F)F)c3)ccc2C)n1"
Output: 1 (yes)

###

# Tested on: JEG-3
# assayRemarks: Primary qHTS to identify gynecologic anti-cancer compounds using libraries of approved drugs and bioactive compounds (AID 1345084); also: nearly all actives have a fitted effect of over 55% in size
# measurementParameters: Gynecologic cancer cell panel viability, ATPlite luminescence, 48 h; series mostly up to 57.5 µM
Results filed as inconclusive are left out. Calls of active or inactive are those of the source. Calls come from the whole dose curve; as a rule, active = well fitted cell-killing curve with a large enough effect; inconclusive = small, poorly fitted or top-dose-only effect, or effect the other way; inactive = flat fitted curve, though single readings scatter.
Please state which outcome applies, choosing from active, inactive

Solved entries:
compound	categoryLabel
COc1cc(-c2nn(C3CCC(N4CCN(C(C)=O)CC4)CC3)c3ncnc(N)c23)ccc1NC(=O)c1cc2ccccc2n1C (centres undefined)	inactive
Cc1cn2c(-c3cn[nH]c3)cnc2c(Nc2ccc(C(=O)N3CCNCC3)cc2F)n1	inactive
CCS(=O)(=O)c1cccc(-c2cc(C(=O)NC3CCN(C)CC3)c(C)c3[nH]c4ncc(C)cc4c23)c1	active

As a next step, examine the compound that follows.
Input: Please state the recorded outcome for this compound: "CN(C)Cc1c(C(=O)NCCOc2ccc(C(=O)NO)cc2)oc2ccccc12"
Output: active

###

# assayRemarks: Quantitative High-Throughput drug screen in 47 multiple myeloma cell lines against the NCATS MIPE library collection: EJM_DSMZ cell viability assay (AID 1918926; also: nearly all actives have a fitted effect of over 30% in size)
# measurementParameters: EJM myeloma cell viability, CellTiter-Glo ATP, 48 h; series mostly up to 45.8 µM
Results filed as inconclusive are left out. Activity calls are given as the source filed them. The call rests on the fitted dose curve; in most records, active means well fitted cell-killing curve with a large enough effect; inconclusive means small, poorly fitted or top-dose-only effect, or effect the other way; inactive means no such curve, though single readings can be large or run the other way.
Please state which outcome applies, choosing from Yes = active, No = inactive

Solved entries:
compound	categoryLabel
COc1cccc2c(NCc3ccccc3)nc(-n3c(N)nc4ccccc43)nc12	Yes
COc1ccc(C(=O)CC2(O)C(=O)Nc3c(Cl)ccc(Cl)c32)cc1 (configuration not stated)	Yes
COc1ccc(OC)c(-c2nnc3ccc(-c4ccc(OC)c(O[C@@H]5CCOC5)c4)nn23)c1	Yes
O=C(Cc1ccc(-c2ccc(OCCN3CCOCC3)cc2)cn1)NCc1ccccc1	Yes
O=c1[nH]nc(Sc2ncc([N+](=O)[O-])s2)n1-c1ccc2c(c1)OCCO2	Yes
O=C(NCCCNc1nc(Nc2cccc(NC(=O)N3CCCC3)c2)ncc1I)c1cccs1	Yes
CC(C)CC(=O)Nc1n[nH]c2c1CN(C(=O)C1CCN(C)CC1)C2(C)C	Yes
OCCCNc1cc(-c2ccnc(Nc3cccc(Cl)c3)n2)ccn1	Yes
CCN(CC)CCCCNc1ncc2cc(-c3cc(OC)cc(OC)c3)c(NC(=O)NC(C)(C)C)nc2n1	Yes
CCCCCCCCCC(=O)N[C@@H](Cc1c[nH]c2ccccc12)C(=O)N[C@H](CC(N)=O)C(=O)N[C@@H](CC(=O)O)C(=O)N[C@@H]1C(=O)NCC(=O)N[C@@H](CCCN)C(=O)N[C@@H](CC(=O)O)C(=O)N[C@H](C)C(=O)N[C@@H](CC(=O)O)C(=O)NCC(=O)N[C@H](CO)C(=O)N[C@@H]([C@@H](C)CC(=O)O)C(=O)N[C@@H](CC(=O)c2ccccc2N)C(=O)O[C@@H]1C	No

Input: Please state the recorded outcome for this compound: "CN1CCN(c2ccc3nc(-c4c(N)c5c(F)cccc5[nH]c4=O)[nH]c3c2)CC1"
Output: Yes

Input: Please state the recorded outcome for this compound: "CC(C)(O)CCc1ccc(OCc2cc(-c3cccc(OC(F)F)c3)c3ncccc3c2)cc1"
Output: No

###

# assayRemarks: qHTS of pediatric cancer cell lines to identify multiple opportunities for drug repurposing: Confirmatory screen for LAN-5 cells (AID 1347113); also: nearly all actives have a fitted effect of over 65% in size
# measurementParameters: LAN-5 neuroblastoma cell viability; series mostly up to 45.9 µM
Results filed as inconclusive are left out. The source made the active and inactive calls. The call rests on the fitted dose curve; in most records, active means well fitted cell-killing curve with a large enough effect; inconclusive means small, poorly fitted or top-dose-only effect, or effect the other way; inactive means no such curve, though single readings can be large or run the other way.
Please state which outcome applies, choosing from label 1 (active), label 0 (inactive)

Solved entries:
entrySmiles	categoryLabel
O=c1[nH]nc(Sc2ncc([N+](=O)[O-])s2)n1-c1ccc2c(c1)OCCO2	label 1
CC[C@@]1(O)C(=O)OCc2c1cc1n(c2=O)Cc2cc3cc(O)ccc3nc2-1	label 1
O=C(C=Cc1cccnc1)NCCCCC1CCN(C(=O)c2ccccc2)CC1	label 0
C#Cc1cccc(Nc2ncnc3cc(OC)c(OCCCCCCC(=O)NO)cc23)c1	label 1

Input: Please state the recorded outcome for this compound: "C=CC(=O)Nc1cc2c(Nc3ccc(F)c(Cl)c3)ncnc2cc1C#CC(C)(C)N1CCN(C)CC1"
Output: label 1
